// data source = patent US20260217708A1

Target: system Xc^− (Homo sapiens)
Sequence (Q9UPY5 1-501): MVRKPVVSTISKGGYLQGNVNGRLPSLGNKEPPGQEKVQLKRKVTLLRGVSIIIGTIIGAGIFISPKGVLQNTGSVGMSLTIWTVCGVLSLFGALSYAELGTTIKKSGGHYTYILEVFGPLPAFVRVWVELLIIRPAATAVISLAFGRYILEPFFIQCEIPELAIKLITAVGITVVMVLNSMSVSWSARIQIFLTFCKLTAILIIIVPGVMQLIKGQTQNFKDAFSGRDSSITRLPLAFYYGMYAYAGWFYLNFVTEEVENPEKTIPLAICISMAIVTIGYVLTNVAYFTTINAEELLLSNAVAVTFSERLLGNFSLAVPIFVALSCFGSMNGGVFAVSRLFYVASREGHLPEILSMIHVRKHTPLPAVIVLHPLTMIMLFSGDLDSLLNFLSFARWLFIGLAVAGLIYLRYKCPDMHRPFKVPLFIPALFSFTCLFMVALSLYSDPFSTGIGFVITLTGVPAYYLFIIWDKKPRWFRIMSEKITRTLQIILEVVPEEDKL
Sequence (P08195 1-529 partner): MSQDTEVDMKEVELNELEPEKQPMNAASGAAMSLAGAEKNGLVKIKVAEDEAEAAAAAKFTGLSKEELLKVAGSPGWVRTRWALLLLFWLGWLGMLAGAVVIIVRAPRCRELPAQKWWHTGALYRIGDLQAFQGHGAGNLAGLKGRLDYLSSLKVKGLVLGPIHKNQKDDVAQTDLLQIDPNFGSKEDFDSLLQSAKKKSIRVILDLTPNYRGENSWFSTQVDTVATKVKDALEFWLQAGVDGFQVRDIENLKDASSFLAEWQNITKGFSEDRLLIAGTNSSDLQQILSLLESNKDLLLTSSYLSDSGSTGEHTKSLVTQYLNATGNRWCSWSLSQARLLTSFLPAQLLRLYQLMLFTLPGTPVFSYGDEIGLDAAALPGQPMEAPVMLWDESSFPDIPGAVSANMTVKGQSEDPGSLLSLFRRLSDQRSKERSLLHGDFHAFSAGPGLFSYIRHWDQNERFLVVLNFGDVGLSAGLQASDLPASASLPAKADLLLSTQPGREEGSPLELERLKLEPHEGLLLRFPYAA
Test: Cystine-induced glutamate release assay
Format: cell-based
Design: endogenous in cells; host or cells: H4 cells
Conditions: H4 cells, sodium-free HEPES buffer, 50 μM L-Cystine, 2 hours, Amplex Red glutamate readout; read-out: pIC50 Cystine-induced glutamate release assay (converted)
Protocol: The effect of compounds of Formula (I) on the system Xc^− functionality was examined in two independent cell assays: (i) measurement of cystine-induced glutamate release; and (ii) measurement of [^14C]L-Cystine uptake. […] In this assay, the medium is devoid of sodium to prevent the transport of glutamate by sodium-dependent excitatory amino acid transporters (EAATs). […] Fluorescence intensity was measured by EnVision microplate reader (PerkinElmer).
Parameter Measured: IC50

[
  {
    "Compound": "Cc1cc2c(c(F)n1)-c1cccnc1[C@@H](C)C(=O)N2CC(=O)Nc1ccc2c(c1)CC(F)(F)C2 [#237]",
    "Target Of Assay": "system Xc^− (Homo sapiens)",
    "Result": "15.8 to 39.8 nM"
  },
  {
    "Compound": "Cc1cc2c(c(F)n1)-c1cccnc1[C@@H](C)C(=O)N2CC(=O)Nc1ccc(C(F)(F)F)cc1F [#247]",
    "Target Of Assay": "system Xc^− (Homo sapiens)",
    "Result": "39.8 to 100 nM"
  },
  {
    "Compound": "COc1cc2c(c(C)n1)-c1cccnc1C(C)C(=O)N2CC(=O)Nc1ccc(C(F)F)cc1 (single isomer, unassigned) [#299]",
    "Target Of Assay": "system Xc^− (Homo sapiens)",
    "Result": "< 15.8 nM"
  },
  {
    "Compound": "Cc1cc2c(cn1)-c1c(Cl)cccc1CC(=O)N2CC(=O)Nc1ccc(C(F)(F)F)cc1 [#32]",
    "Target Of Assay": "system Xc^− (Homo sapiens)",
    "Result": "100 to 501 nM"
  }
]

----------
biological target: system Xc^− (Homo sapiens); assay: Cystine-induced glutamate release assay; assay type: cell-based; design: endogenous in cells; host or cells: H4 cells; details: H4 cells, sodium-free HEPES buffer, 50 μM L-Cystine, 2 hours, Amplex Red glutamate readout; read-out: pIC50 Cystine-induced glutamate release assay (converted)
Below, each of the molecules is paired with its reported IC50 value.

[
  {
    "Molecule": "Cc1cc2c(c(F)n1)-c1cccnc1[C@@H](C)C(=O)N2CC(=O)Nc1ccc(C2CC2)cc1 [#142]",
    "IC50": "15.8 to 39.8 nM"
  },
  {
    "Molecule": "COc1ncc(F)c2c1-c1ccccc1C(C)C(=O)N2CC(=O)Nc1ccc(Cl)c(F)c1 (stereo not shown) [#400]",
    "IC50": "39.8 to 100 nM"
  },
  {
    "Molecule": "Cc1cc2c(c(F)n1)-c1cccnc1[C@@H](C)C(=O)N2CC(=O)Nc1ccc(Cl)c(F)c1 (single isomer, unassigned) [#200]",
    "IC50": "15.8 to 39.8 nM"
  },
  {
    "Molecule": "Cc1cc2c(cn1)-c1ccc(Cl)cc1C(C)C(=O)N2CC(=O)Nc1ccc(C(F)F)cc1 (single isomer, unassigned) [#396]",
    "IC50": "15.8 to 39.8 nM"
  },
  {
    "Molecule": "Cc1cc2c(c(=O)o1)-c1ccccc1C(C)C(=O)N2CC(=O)Nc1ccc(C(F)F)cc1 (single isomer, unassigned) [#359]",
    "IC50": "15.8 to 39.8 nM"
  },
  {
    "Molecule": "Cc1cc2c(c(F)n1)-c1cccnc1[C@@H](C)C(=O)N2CC(=O)Nc1csc(Cl)c1 [#243]",
    "IC50": "15.8 to 39.8 nM"
  },
  {
    "Molecule": "O=C(CN1C(=O)Cc2sccc2-c2cnc(Cl)cc21)Nc1ccc(C(F)(F)F)cc1 [#26]",
    "IC50": "100 to 501 nM"
  },
  {
    "Molecule": "O=C(CN1C(=O)Cc2ccccc2-c2ncc(F)cc21)Nc1ccc(C(F)(F)F)cc1 [#16]",
    "IC50": "100 to 501 nM"
  },
  {
    "Molecule": "CC1C(=O)N(CC(=O)Nc2ccc(C(F)(F)F)cc2)c2cn(C)c(=O)c(F)c2-c2cccnc21 (single isomer, unassigned) [#184]",
    "IC50": "15.8 to 39.8 nM"
  },
  {
    "Molecule": "COc1cc2c(c(Cl)n1)-c1ccnn1C(C)C(=O)N2CC(=O)Nc1ccc(Cl)c(F)c1 (single isomer, unassigned) [#387]",
    "IC50": "15.8 to 39.8 nM"
  },
  {
    "Molecule": "Cc1cc2c(c(Cl)n1)-c1cccnc1CC(=O)N2CC(=O)Nc1ccc(C(F)(F)F)cc1 [#97]",
    "IC50": "39.8 to 100 nM"
  },
  {
    "Molecule": "CC1C(=O)N(CC(=O)Nc2ccc(C(F)F)cc2)c2cc(Cl)nc(Cl)c2-c2cccnc21 (stereo not shown) [#395]",
    "IC50": "15.8 to 39.8 nM"
  },
  {
    "Molecule": "CC1C(=O)N(CC(=O)Nc2ccc(Cl)c(F)c2)c2cc(C(F)F)ccc2-c2cccnc21 (stereo not shown) [#341]",
    "IC50": "15.8 to 39.8 nM"
  },
  {
    "Molecule": "Cc1cc2c(c(F)n1)-c1ncc(F)cc1CC(=O)N2CC(=O)Nc1ccc(Cl)c(F)c1 [#417]",
    "IC50": "39.8 to 100 nM"
  },
  {
    "Molecule": "CC1C(=O)N(CC(=O)Nc2ccc(Cl)c(F)c2)c2ccn(C)c(=O)c2-c2ccccc21 (stereo not shown) [#351]",
    "IC50": "39.8 to 100 nM"
  },
  {
    "Molecule": "Cc1cc2c(c(F)n1)-c1ncc(F)cc1C(C)C(=O)N2CC(=O)Nc1ccc(C(F)F)cc1 (single isomer, unassigned) [#304]",
    "IC50": "15.8 to 39.8 nM"
  }
]
